Where do the numbers come from? From ChEMBL document CHEMBL4346722.

assay: Half life in C57BL/6 mouse at 50 mg/kg, po; assay type: ADME, organism-based; details: in vivo
Experimental readout: half-life (h)
# unit: h | format: bare number

-- ask May I ask what half-life has been recorded for O=C(O)c1cc(-c2ccc([C@@H](O)C(F)F)cc2)c2ccc(-c3ccc(C(F)(F)F)cc3)cc2c1 ?
-- reply 3

====

experiment: Inhibition of chimpanzee P2Y14 receptor; parameters: species or system Pan troglodytes
Experimental readout: pKi
// returns pKi (minus log10 of molar concentration), number only

-- ask May I ask what pKi has been recorded for Cc1cc(F)cc(C)c1COc1ccc2c(-c3ccsc3)cc(C(=O)O)cc2c1 ?
-- reply 7.85

-- ask May I ask what pKi has been recorded for O=C(O)c1cc(-c2ccc(C3CCNCC3)cc2)c2ccc(-c3ccc(C(F)(F)F)cc3)cc2c1 ?
-- reply 8.72
